Catalogue of IC50 values
tested on: breast adenocarcinoma cell line BT-20; experiment: Tumor cell viability assay, Trypan blue exclusion; format: cell-based; conditions: cell viability after 96 hours

{"Compound": "COC(=O)C(F)(F)C(=O)Nc1cc(CS(=O)(=O)/C=C/c2c(OC)cc(OC)cc2OC)ccc1OC", "IC50": "< 10 µM"}
{"Compound": "COc1cc(OC)c(/C=C/S(=O)(=O)Cc2ccc(OC)c(S(=O)(=O)NCC(=O)O)c2)c(OC)c1", "IC50": "< 10 µM"}

Asked: Output measured IC50 for this item: `COc1cc(OC)c(/C=C/S(=O)(=O)Cc2ccc(OC)c(NC(=O)c3cc([N+](=O)[O-])cc([N+](=O)[O-])c3)c2)c(OC)c1`
Given back: < 10 µM

Asked: Output measured IC50 for this item: `COc1cc(OC)c(/C=C/S(=O)(=O)Cc2ccc(OC)c(NC(=O)CC(=O)O)c2)c(OC)c1`
Given back: < 10 µM
